- TARGET: Sphingomyelin phosphodiesterase 2 (Rattus norvegicus)
- Sequence (Q9ET64 whole entry): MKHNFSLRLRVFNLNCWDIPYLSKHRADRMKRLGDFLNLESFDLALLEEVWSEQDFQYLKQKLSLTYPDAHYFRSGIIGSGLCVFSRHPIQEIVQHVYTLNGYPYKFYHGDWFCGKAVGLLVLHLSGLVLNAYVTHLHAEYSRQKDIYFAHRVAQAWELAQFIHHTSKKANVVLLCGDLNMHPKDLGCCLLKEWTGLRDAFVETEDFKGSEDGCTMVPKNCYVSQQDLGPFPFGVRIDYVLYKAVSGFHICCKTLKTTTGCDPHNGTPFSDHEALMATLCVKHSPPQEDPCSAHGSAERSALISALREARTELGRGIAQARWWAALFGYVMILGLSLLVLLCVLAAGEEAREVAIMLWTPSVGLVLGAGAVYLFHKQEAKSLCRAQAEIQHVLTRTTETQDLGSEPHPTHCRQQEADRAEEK
EXPERIMENTAL READOUT: IC50 (µM)
Please give a number only; it is taken to be in µM.

Reported IC50, molecule CCCCCCCCCCCCC/C=C/[C@@H](O)[C@H](CNC(=O)OCc1ccncc1)NC(=O)C(C)(C)C : ____
58
